Biological target: UniProtKB P00748
Sequence (P00748 373-615 limits assumed): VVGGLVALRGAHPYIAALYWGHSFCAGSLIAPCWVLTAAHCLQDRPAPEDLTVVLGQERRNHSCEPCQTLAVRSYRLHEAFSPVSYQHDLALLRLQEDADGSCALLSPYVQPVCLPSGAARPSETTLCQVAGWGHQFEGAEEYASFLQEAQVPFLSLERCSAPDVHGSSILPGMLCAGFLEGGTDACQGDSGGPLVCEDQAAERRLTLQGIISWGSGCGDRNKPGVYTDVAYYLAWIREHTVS
Sequence (P00748 20-372 partner limits assumed): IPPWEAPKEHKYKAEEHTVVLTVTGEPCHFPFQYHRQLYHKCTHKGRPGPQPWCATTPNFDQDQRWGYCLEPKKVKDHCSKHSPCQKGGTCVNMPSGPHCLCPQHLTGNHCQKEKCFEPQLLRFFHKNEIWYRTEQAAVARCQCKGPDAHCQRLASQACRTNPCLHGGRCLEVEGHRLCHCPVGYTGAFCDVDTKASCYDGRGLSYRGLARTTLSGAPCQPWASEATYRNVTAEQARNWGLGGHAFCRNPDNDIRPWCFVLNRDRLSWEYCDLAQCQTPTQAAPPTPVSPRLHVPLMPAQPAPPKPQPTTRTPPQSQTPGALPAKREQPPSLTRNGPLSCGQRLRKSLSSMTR
outcome.measure: Ki

>>> observed_measurement("Cc1ccc(C[C@@H]2C[C@@H](C(=O)NCc3ccc4c(cnn4C)c3)N(C(=O)[C@@H]3NCCC[C@@H]3C(=O)N3CC[C@H](F)C3)C2)cc1")
"200 to 800 nM"
>>> observed_measurement("Cc1ccc(C[C@@H]2C[C@@H](C(=O)NCc3ccn4c(C(F)F)nnc4c3)N(C(=O)[C@@H]3NCCC[C@@H]3C(=O)N3CCCC3)C2)cc1")
"800 to 5000 nM"
>>> observed_measurement("COc1ccc(CNC(=O)[C@@H]2C[C@@H](Cc3ccc(C)cc3)CN2C(=O)[C@@H]2NCCC[C@@H]2C(=O)N2CCCC2)cc1")
"≥ 5000 nM"
>>> observed_measurement("Cc1ccc(C[C@@H]2C[C@@H](C(=O)NCc3ccc4c(c3)nnn4C)N(C(=O)[C@@H]3NCCC[C@@H]3C(=O)N3CCC[C@@H]3C(F)(F)F)C2)s1")
"200 to 800 nM"
>>> observed_measurement("Cc1ccc(C[C@@H]2C[C@@H](C(=O)NCc3ccc4c(cnn4C)c3)N(C(=O)[C@@H]3NCCC[C@@H]3C(=O)N(C)C3CCN(CCF)CC3)C2)cc1")
"< 200 nM"
>>> observed_measurement("CN(CCN1CCCC1)C(=O)[C@H]1CCCN[C@H]1C(=O)N1C[C@@H](C(F)(F)F)C[C@H]1C(=O)NCc1ccc2c(cnn2C)c1")
"< 200 nM"

---

Molecular target: FXIIa (Homo sapiens)
outcome.measure: Ki

>>> observed_measurement("Cc1ccc(C[C@@H]2C[C@@H](C(=O)NCc3ccc4c(cnn4C)c3)N(C(=O)[C@@H]3NCCC[C@@H]3C(=O)N(C)CCN3CC(F)C3)C2)cc1")
"< 200 nM"
>>> observed_measurement("Cc1ccc(C[C@@H]2C[C@@H](C(=O)NCc3ccn4c(C)nnc4c3)N(C(=O)[C@@H]3NCCC[C@@H]3C(=O)N3CCCC3)C2)cc1")
"200 to 800 nM"
>>> observed_measurement("Cc1ccc(C[C@@H]2C[C@@H](C(=O)NCc3ccc4c(cnn4C)c3)N(C(=O)[C@@H]3NCCC[C@@H]3C(=O)N3C4CCC3CC4)C2)cc1")
"200 to 800 nM"
>>> observed_measurement("Cc1ccc(C[C@@H]2C[C@@H](C(=O)NCc3ccc4c(cnn4C)c3)N(C(=O)[C@@H]3NCCC[C@@H]3C(=O)N(C)C3CC3)C2)cc1")
"< 200 nM"
>>> observed_measurement("Cn1ncc2cc(CNC(=O)[C@@H]3C[C@@H](Cc4ncc(C5CC5)o4)CN3C(=O)[C@@H]3NCCC[C@@H]3C(=O)N3CCCC3)ccc21")
"200 to 800 nM"
>>> observed_measurement("Cc1nnc2cc(CNC(=O)[C@@H]3C[C@@H](Cc4ccc(C5CC5)cc4)CN3C(=O)[C@@H]3NCCC[C@@H]3C(=O)N3CCCC3)ccn12")
"200 to 800 nM"

---

Target: FXa (Homo sapiens)
Sequence (P00742 235-488 limits assumed): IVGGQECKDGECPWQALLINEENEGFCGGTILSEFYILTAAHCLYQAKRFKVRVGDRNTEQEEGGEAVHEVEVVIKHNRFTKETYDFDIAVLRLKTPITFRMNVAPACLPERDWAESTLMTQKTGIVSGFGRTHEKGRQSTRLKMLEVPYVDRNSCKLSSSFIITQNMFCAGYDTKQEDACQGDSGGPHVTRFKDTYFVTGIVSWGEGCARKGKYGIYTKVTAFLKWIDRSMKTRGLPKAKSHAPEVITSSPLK
Sequence (P00742 41-179 partner limits assumed): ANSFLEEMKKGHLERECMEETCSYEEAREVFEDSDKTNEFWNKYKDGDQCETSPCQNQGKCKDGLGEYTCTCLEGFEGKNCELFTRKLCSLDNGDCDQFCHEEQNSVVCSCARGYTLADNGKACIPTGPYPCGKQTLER
Experiment: Determination of selectivity: FXa inhibition (chromogenic substrate S2765)
Format: biochemical
Conditions: fold selectivity for FXIIa over FXa (human); category
outcome.measure: FXa (human)/FXIIa alpha (human)

>>> observed_measurement("Cc1ccc(C[C@@H]2C[C@@H](C(=O)NCc3ccc4c(cnn4C)c3)N(C(=O)[C@@H]3NCCC[C@@H]3C(=O)N3CCOCC3)C2)cc1")
"∘∘∘"
>>> observed_measurement("COc1ccc(CNC(=O)[C@@H]2C[C@@H](Cc3ccc(C)cc3)CN2C(=O)[C@@H]2NCCC[C@@H]2C(=O)N2CCCC2)cc1")
"∘∘"
>>> observed_measurement("Cn1ncc2cc(CNC(=O)[C@@H]3C[C@@H](Cc4ccn(C5CC5)n4)CN3C(=O)[C@@H]3NCCC[C@@H]3C(=O)N3CCCC3)ccc21")
"∘∘∘"
>>> observed_measurement("CCO[C@H]1CCN(C(=O)[C@H]2CCCN[C@H]2C(=O)N2C[C@H](Cc3ccc(C)cc3)C[C@H]2C(=O)NCc2ccc3c(cnn3C)c2)C1")
"∘∘∘"
>>> observed_measurement("Cn1nnc2cc(CNC(=O)[C@@H]3C[C@@H](Cc4ccc(C5CC5)cc4)CN3C(=O)[C@@H]3NCCC[C@@H]3C(=O)N3CCCC3)ccc21")
"∘∘∘"
>>> observed_measurement("Cn1ncc2cc(CNC(=O)[C@@H]3C[C@@H](Cc4cccc(C(F)(F)F)c4)CN3C(=O)[C@@H]3NCCC[C@@H]3C(=O)N3CCCC3)ccc21")
"∘∘∘"
>>> observed_measurement("Cc1ccc(C=C2C[C@@H](C(=O)NCc3ccc4c(cnn4C)c3)N(C(=O)[C@@H]3NCCC[C@@H]3C(=O)N3CCCC3)C2)cc1 (single isomer, unassigned) [Example M05843]")
"∘∘∘"
>>> observed_measurement("Cc1ccc(C[C@@H]2C[C@@H](C(=O)NCc3ccc4c(cnn4C)c3)N(C(=O)[C@@H]3NCCC[C@@H]3C(=O)N(C)CCN3CC(F)C3)C2)cc1")
"∘∘∘"
>>> observed_measurement("Cn1ncc2cc(CNC(=O)[C@@H]3C[C@@H](Cc4ccc(C5CC5)nn4)CN3C(=O)[C@@H]3NCCC[C@@H]3C(=O)N3CCCC3)ccc21")
"∘∘∘"
>>> observed_measurement("CCCc1ccc(C[C@@H]2C[C@@H](C(=O)NCc3ccc4c(c3)nnn4C)N(C(=O)[C@@H]3NCCC[C@@H]3C(=O)N3CCCC3)C2)cc1")
"∘∘∘"
>>> observed_measurement("Cc1ccc(C[C@@H]2C[C@@H](C(=O)NCc3ccc4c(cnn4C)c3)N(C(=O)[C@@H]3NCCC[C@@H]3C(=O)N3CCCN(C)CC3)C2)cc1")
"∘∘∘"
>>> observed_measurement("Cc1ccc(C[C@@H]2C[C@@H](C(=O)NCc3ccc4c(cnn4C)c3)N(C(=O)[C@@H]3NCCC[C@@H]3C(=O)N3CCC(F)(F)C3)C2)cc1")
"∘∘∘"
>>> observed_measurement("Cc1ccc(C[C@@H]2C[C@@H](C(=O)NCc3cnc4[nH]cc(Cl)c4c3)N(C(=O)[C@@H]3NCCC[C@@H]3C(=O)N3CCCC3)C2)cc1")
"∘∘"
>>> observed_measurement("COCCN1CCC(N(C)C(=O)[C@H]2CCCN[C@H]2C(=O)N2C[C@H](Cc3ccc(C)cc3)C[C@H]2C(=O)NCc2ccc3c(cnn3C)c2)CC1")
"∘∘∘"
>>> observed_measurement("Cc1ccc(C[C@@H]2C[C@@H](C(=O)NCc3ccn4c(C)nnc4c3)N(C(=O)[C@@H]3NCCC[C@@H]3C(=O)N3CCCC3)C2)cc1")
"∘∘∘"
>>> observed_measurement("Cn1nnc2cc(CNC(=O)[C@@H]3C/C(=C/C4=CCC5(CC4)CC5)CN3C(=O)[C@@H]3NCCC[C@@H]3C(=O)N3CCCC3)ccc21")
"∘∘∘"
>>> observed_measurement("Cc1ccc(C[C@@H]2C[C@@H](C(=O)NCc3ccc4c(cnn4C)c3)N(C(=O)[C@@H]3NCCC[C@@H]3C(=O)N3CCCCC3)C2)cc1")
"∘∘∘"
>>> observed_measurement("Cc1ccc(C[C@@H]2C[C@@H](C(=O)NCc3ccc4c(cnn4C)c3)N(C(=O)[C@@H]3NCCC[C@@H]3C(=O)N(C)C3CCN(C)CC3)C2)cc1")
"∘∘∘"
>>> observed_measurement("Cc1ccc(C[C@@H]2C[C@@H](C(=O)NCc3ccc4c(cnn4C)c3)N(C(=O)[C@@H]3NCCC[C@@H]3C(=O)N(C)C3CCN(CCF)CC3)C2)cc1")
"∘∘∘"
>>> observed_measurement("Cc1ccc(C[C@@H]2C[C@@H](C(=O)NCc3ccc4c(cnn4C)c3)N(C(=O)[C@@H]3NCCC[C@@H]3C(=O)N(C)C3CCN(C)C3)C2)cc1 (stereo partly shown) [Example M06033]")
"∘∘∘"
>>> observed_measurement("Cc1ccc(C[C@@H]2C[C@@H](C(=O)NCc3ccc4c(cnn4C)c3)N(C(=O)[C@@H]3NCCC[C@@H]3C(=O)N3CCCC3)C2)s1")
"∘∘∘"
>>> observed_measurement("Cc1ccc(C[C@@H]2C[C@@H](C(=O)NCc3ccc4c(cnn4C)c3)N(C(=O)[C@@H]3NCCC[C@@H]3C(=O)N3CCNCC3)C2)cc1")
"∘∘∘"
